A collection of compounds and their measured pIC50
- System: Vero
- ASSAY PROTOCOL: Cytotoxicity against african green monkey Vero cells by MTT assay
- Type: cell-based
- RUN PARAMETERS: Chlorocebus sabaeus
pIC50: −log10 of the molar value.

SMILES CODE | pIC50
C=CCOc1cc(OC)c(C(=O)/C=C/c2ccc(OC)cc2OC)c(OCC=C)c1 | 4.03
C=CCOc1cc(OC)c(C(=O)/C=C/c2ccncc2)c(OCC=C)c1 | 5.55
C=CCOc1cc(OC)c(C(=O)/C=C/c2ccc(OC)cc2)c(OCC=C)c1 | 4.00
C=CCOc1cc(OC)c(C(=O)/C=C/c2ccccc2Br)c(OCC=C)c1 | 4.86
C=CCOc1cc(OC)c(C(=O)/C=C/c2cc(OCC=C)c(Br)c(OCC=C)c2)c(OCC=C)c1 | 4.02
C=CCOc1cc(OC)c(C(=O)/C=C/c2ccccn2)c(OCC=C)c1 | 5.55
C=CCOc1cc(OC)c(C(=O)/C=C/c2ccc(C(F)(F)F)cc2)c(OCC=C)c1 | 5.14
C=CCOc1cc(OC)c(C(=O)/C=C/c2ccccc2F)c(OCC=C)c1 | 4.79
COc1cc(O)cc(O)c1C(=O)/C=C/c1ccc2c(c1)OCO2 | 4.59
C=CCOc1cc(OC)c(C(=O)/C=C/c2ccc(Cl)cc2)c(OCC=C)c1 | 4.98
C=CCOc1cc(OC)c(C(=O)/C=C/c2cc(OC)c(OC)c(OC)c2)c(OCC=C)c1 | 4.39
C=CCOc1cc(OC)c(C(=O)/C=C/c2ccc(F)cc2)c(OCC=C)c1 | 4.87

###

- Test system: Trypanosoma cruzi
- ASSAY PROTOCOL: Antitrypanosomal activity against Trypanosoma cruzi Tulahuen C4 in african green monkey Vero cells after 120 hrs
- Assay type: functional, organism-based
pIC50: −log10 of the molar value.
OBSERVABLE: pIC50

SMILES CODE | RELATION | MEASURED RESULT
C=CCOc1cc(OC)c(C(=O)/C=C/c2ccc(OC)cc2OC)c(OCC=C)c1 | = | 4.88
COc1ccc(CCC(=O)c2c(O)cc(O)cc2OC)cc1 | < | 4.60
C=CCOc1cc(OC)c(C(=O)/C=C/c2ccc(C)cc2)c(OCC=C)c1 | = | 4.76

###

- Test system: HT-29
- ASSAY PROTOCOL: Cytotoxicity against human HT29 cells after 48 hrs
- Type: functional
- RUN PARAMETERS: HT-29, 48 h

SMILES CODE | ASSAYED SYSTEM | MEASUREMENT UNITS | RELATION | GI50
C=CCOc1cc(OC)c(C(=O)/C=C/c2ccc(OC)cc2)c(OCC=C)c1 | HT-29 | µM | = | 28.4
COc1cc(O)c(C(=O)CCc2ccc3c(c2)OCO3)c(OC)c1 | HT-29 | µM | = | 145
COc1ccc(/C=C/C(=O)c2c(O)cc(OC)cc2OC)cc1 | HT-29 | µM | = | 45.3
COc1ccc(CCC(=O)c2c(O)cc(OC)cc2OC)cc1 | HT-29 | µM | > | 197
COc1cc(O)c(C(=O)/C=C/c2ccc3c(c2)OCO3)c(OC)c1 | HT-29 | µM | > | 190
COc1ccc(/C=C/C(=O)c2c(O)cc(O)cc2OC)cc1 | HT-29 | µM | = | 21.6
COc1ccc(CCC(=O)c2c(O)cc(O)cc2OC)cc1 | HT-29 | µM | > | 206
O=c1[nH]cc(F)c(=O)[nH]1 | HT-29 | µM | = | 8.9
COc1cc(O)cc(O)c1C(=O)/C=C/c1ccc2c(c1)OCO2 | HT-29 | µM | = | 20.7
C=CCOc1cc(OC)c(C(=O)/C=C/c2ccc3c(c2)OCO3)c(OCC=C)c1 | HT-29 | µM | = | 24.1
